# Tested on: Saccharomyces cerevisiae;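 note: PSI is a weighted mean of sequencing reads over stability bins, variants kept only with over 10 reads, mCherry proximal and sfGFP distal, peptide attached via GGGS linker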
# test-summary: protein stability index of tFT-peptide fusion (C-terminal peptide) (PSI (0-1 scale)); higher = more stable (slower turnover)
# run-parameters: genetic background: doa10 deletion; temperature: 30 C
Outcome: Fulfilled for protein stability index of at least 0.3; Not fulfilled for anything lower.

Prompt line: Has VFGWWSVVLRVA a recorded protein stability index greater than or equal to 0.3?
Response line: Not fulfilled

Prompt line: Is reported protein stability index greater than or equal to 0.3 here: LFFFFLPHLILL
Response line: Fulfilled

Prompt line: Form field: protein stability index at least 0.3? Entry: LIFLSISFISSL
Response line: Not fulfilled

Prompt line: API: above_or_equal(metric=protein stability index, cutoff=0.3) for item ASGVFSRLVLVS
Response line: Not fulfilled

Prompt line: # bool: protein stability index of CLLVCCCFYRNV >= 0.3
Response line: Fulfilled

Prompt line: Please indicate if the recorded protein stability index for LFPVASLCLART meets or exceeds 0.3.
Response line: Fulfilled

Prompt line: Does FPFHSRPCLPVL have a reported protein stability index of at least 0.3?
Response line: Fulfilled

Prompt line: Is protein stability index at least 0.3? Consider LAEHIFLVLDHG
Response line: Fulfilled

Prompt line: Please check the record LCFVFVLGFFAF and state if its protein stability index is at or above 0.3.
Response line: Fulfilled

Prompt line: Does YSCFFFLFSFFF have a reported protein stability index of at least 0.3?
Response line: Fulfilled

Prompt line: Is protein stability index for FVVIFRFSRFSA at or above 0.3?
Response line: Fulfilled

Prompt line: Please tell me: is the sequence VFSFWVLCEVSV at or over 0.3 in terms of protein stability index?
Response line: Not fulfilled

Prompt line: State whether the measured protein stability index reaches 0.3, counting equality as reaching it, for LGVVLFCFRFCR
Response line: Fulfilled

Prompt line: # bool: protein stability index of SPAIRAILAPAG >= 0.3
Response line: Fulfilled

Prompt line: Could you verify whether the entry GMGRVLVEVLLC shows protein stability index of no less than 0.3?
Response line: Not fulfilled

Prompt line: Tell me whether protein stability index is at least 0.3 here: ACLVAVWRWVFV
Response line: Not fulfilled

Prompt line: Check the entry QDFFYCLLVATS : does protein stability index equal or exceed 0.3?
Response line: Not fulfilled

Prompt line: Hello, I need to know if FLSRHFLFLSFV has measured protein stability index not below 0.3. Thanks!
Response line: Fulfilled

Prompt line: Answer whether protein stability index of RVGALLAVTCPA is greater than or equal to 0.3.
Response line: Not fulfilled

Prompt line: Given the entry GGGVWWGVLVLG , answer whether its protein stability index meets or surpasses 0.3.
Response line: Not fulfilled

Prompt line: Reported protein stability index at or above 0.3? VKSAVLLFFLVT
Response line: Not fulfilled

Prompt line: Has FICYDRILTVYY a recorded protein stability index greater than or equal to 0.3?
Response line: Fulfilled

Prompt line: Is protein stability index at least 0.3? Consider VFLVGFRVTLDS
Response line: Not fulfilled

Prompt line: API: above_or_equal(metric=protein stability index, cutoff=0.3) for item VFGSRCLLTVVV
Response line: Fulfilled

Prompt line: Dear colleague, could you confirm whether CVGRPIALAVRT has protein stability index at or above 0.3?
Response line: Fulfilled

Prompt line: Hi, just wondering whether LLFPRVLVLCFS shows protein stability index of 0.3 or higher.
Response line: Not fulfilled

Prompt line: Is protein stability index for LCVFRFFLFFFL at or above 0.3?
Response line: Fulfilled

Prompt line: Exam item: decide whether the reported protein stability index for IPFRRCFWFFWV is at least 0.3.
Response line: Not fulfilled

Prompt line: Quick check: does SRGKMTIVSNQI have protein stability index greater than or equal to 0.3?
Response line: Fulfilled

Prompt line: Kindly determine if protein stability index recorded for FFVYRFFSLSVC is above or exactly 0.3.
Response line: Not fulfilled

Prompt line: Reported protein stability index reaches at least 0.3 for FKFGVFDFRFLC ?
Response line: Not fulfilled

Prompt line: Decide: protein stability index of LILFMLLSFLTT >= 0.3?
Response line: Not fulfilled

Prompt line: Threshold query (protein stability index >= 0.3) on FFIMFFDFWGYF
Response line: Fulfilled

Prompt line: Decide: protein stability index of WNSQGVFILAKC >= 0.3?
Response line: Fulfilled

Prompt line: Please indicate if the recorded protein stability index for WLALSFFSFFFC meets or exceeds 0.3.
Response line: Fulfilled

Prompt line: Hi team, for EKIIVAVLFVVP , is the recorded protein stability index at or above 0.3?
Response line: Not fulfilled

Prompt line: Is protein stability index for AWLWCVCWSIMR at or above 0.3?
Response line: Fulfilled

Prompt line: Confirm if protein stability index reported for the sequence VSRAVCLWRRLL is 0.3 or above.
Response line: Not fulfilled

Prompt line: Evaluate PPPRLPLLSCSQ : protein stability index at minimum 0.3?
Response line: Fulfilled

Prompt line: Quick check: does NFVVYHVAIRVP have protein stability index greater than or equal to 0.3?
Response line: Not fulfilled

Prompt line: Textbook exercise: given the entry ACALRSLPPRPY , state whether its protein stability index is greater than or equal to 0.3.
Response line: Fulfilled

Prompt line: Check the entry GKVGGRMWVWRV : does protein stability index equal or exceed 0.3?
Response line: Not fulfilled

Prompt line: Determine whether this sequence has protein stability index no lower than 0.3: WCGSWGVWMRLG
Response line: Not fulfilled

Prompt line: Would you say LLLPSAPFLFLL shows protein stability index at minimum 0.3?
Response line: Fulfilled

Prompt line: Exam item: decide whether the reported protein stability index for GVFVWVVFVCTM is at least 0.3.
Response line: Not fulfilled

Prompt line: protein stability index >= 0.3 for VYCQRFMLLFTP ?
Response line: Fulfilled

Prompt line: Determine whether this sequence has protein stability index no lower than 0.3: PAPQAVRIFSLY
Response line: Not fulfilled

Prompt line: Please indicate if the recorded protein stability index for AITLPMCPLLLR meets or exceeds 0.3.
Response line: Fulfilled

Prompt line: Record GWVSCCVWSFLV ; criterion: protein stability index no lower than 0.3. Met?
Response line: Not fulfilled

Prompt line: Does VPWSKIAARLII have a reported protein stability index of at least 0.3?
Response line: Not fulfilled

Prompt line: Does protein stability index meet or surpass 0.3 for RLGIRCLYLRFI ?
Response line: Not fulfilled

Prompt line: Hi, just wondering whether LPPHSASLSSSF shows protein stability index of 0.3 or higher.
Response line: Fulfilled

Prompt line: Item LEPFTGYTVIVM with protein stability index of 0.3 or above?
Response line: Not fulfilled

Prompt line: Quick check, protein stability index >= 0.3? KLLDHFVKIRVY
Response line: Not fulfilled

Prompt line: Does HLYCYNILLVSG have a reported protein stability index of at least 0.3?
Response line: Not fulfilled

Prompt line: Does protein stability index meet or surpass 0.3 for VFFMFVFFPFPG ?
Response line: Fulfilled

Prompt line: Could you tell me if the measured protein stability index of IKTKGRYKKQRT reaches 0.3 or more?
Response line: Fulfilled

Prompt line: Determine whether this sequence has protein stability index no lower than 0.3: DNTYRIDIKNKQ
Response line: Fulfilled

Prompt line: Entry LPASLSLWPLLC : is its protein stability index no less than 0.3?
Response line: Not fulfilled

Prompt line: Hello, I need to know if GRTDFSTLLLIC has measured protein stability index not below 0.3. Thanks!
Response line: Not fulfilled

Prompt line: Decide: is the reported value of protein stability index for FIVVSFCFFLFF equal to or greater than 0.3?
Response line: Fulfilled

Prompt line: In plain terms: is recorded protein stability index at least 0.3 for FLLLVVYVSLYS ?
Response line: Not fulfilled

Prompt line: Does the sequence SRSVLLCFCWLC have recorded protein stability index that is 0.3 or more?
Response line: Not fulfilled

Prompt line: API: above_or_equal(metric=protein stability index, cutoff=0.3) for item GVVCWVVVFGGW
Response line: Not fulfilled

Prompt line: For this sequence, is measured protein stability index 0.3 or higher? VVTLHISLFYPG
Response line: Fulfilled

Prompt line: Does LWWTRVILYGYI have a reported protein stability index of at least 0.3?
Response line: Fulfilled

Prompt line: Reported protein stability index reaches at least 0.3 for PSPPPPRPASPS ?
Response line: Fulfilled

Prompt line: Confirm if protein stability index reported for the sequence VFVFTFSLSFYC is 0.3 or above.
Response line: Not fulfilled

Prompt line: Has LYCGLIFFLRGV a recorded protein stability index greater than or equal to 0.3?
Response line: Fulfilled

Prompt line: Identify whether the reported protein stability index of the following sequence is 0.3 or greater: VVRLRVWRLLKV
Response line: Not fulfilled

Prompt line: Given the entry VFCMVLPFVLLT , answer whether its protein stability index meets or surpasses 0.3.
Response line: Not fulfilled

Prompt line: Has FFFFSVHLSFLD a recorded protein stability index greater than or equal to 0.3?
Response line: Not fulfilled

Prompt line: Determine whether this sequence has protein stability index no lower than 0.3: EWLITLRKCGVA
Response line: Fulfilled

Prompt line: Has CYFLFFLSYSLE a recorded protein stability index greater than or equal to 0.3?
Response line: Not fulfilled

Prompt line: Quick check, protein stability index >= 0.3? LLFLWVLFLPFA
Response line: Fulfilled

Prompt line: Is protein stability index at least 0.3? Consider LFLVVVVRAGGF
Response line: Not fulfilled

Prompt line: Evaluate FYTYILTVAEAL : protein stability index at minimum 0.3?
Response line: Fulfilled

Prompt line: Decide: is the reported value of protein stability index for GCLSFVAAVHLH equal to or greater than 0.3?
Response line: Not fulfilled

Prompt line: Answer whether protein stability index of VCLLFRFCCWFW is greater than or equal to 0.3.
Response line: Fulfilled
